experimentalTarget: human Claudin 18.2 (hCLDN18.2) (human, UniProt P56856-2 1-261)
assayName: cell-based or functional assay
measuredAttribute: CDC EC50 (µg/mL)
Answer with a number only, understood to be in µg/mL.

# annotated cases, reported CDC EC50 shown
{"binder": "ch-287F12 (antibody, V domains shown, also called chimeric antibody of clone 287F12) VH: QIQLVQSGPELKRPGETVRISCKASGFTFTTAGMHWVQKMAGKGLKWLGWTNTHSGEPKYAEDFKGRFAFSLDTSGSDAYLQIGNLKYEDAATYFCAKWGRGNALDYWGQGTSVTVSS VL: DIVMTQSPSSLTVTAGEKVTMTCKSSQSLLNSGNQKNYLTWYQQKPGQPPKLLIYWASTRESGVPDRFTGSGSGTDFTLTINTVQAEDLAVYYCQNTYSYPLTFGGGTKLELR", "CDC EC50 (µg/mL)": 0.141}
{"binder": "ch-239E9 (antibody, V domains shown, also called chimeric antibody of clone 239E9) VH: QVQLQQSGPELVRPGVSVKISCKGSSYTFTDYTMHWVKQSHAKSLEWIGFIGVYYGNTNYNQKFKGKATMTVDKSSSTAYMELARLTSEDSAVYYCARIGRGNAMDYWGQGTSVTVSS VL: DIVMTQSPSSLTVTAGEKVTMSCKSSQSLLNSGNQKNYLTWYQQKPGQPPKLLIYWASTRESGVPDRFTGSGSGTDFTLTISSVQAEDLAVYNCQNAYSYPFTFGSGTKLEIK", "CDC EC50 (µg/mL)": 0.139}
{"binder": "ch-42D2 (antibody, V domains shown, also called chimeric antibody of clone 42D2) VH: EVQLQQSGPVLVKPGASVKMSCKASGYTFTDYQMNWVKQSHGKSLEWIGFINPYNGGIRYNQKFKGKATLTVDKSSSTAYMELNSLTSEDSAVYYCATIYFGNSFANWGQGTLVTVSA VL: DIVMTQSPSSLTVTAGEKVTMSCKPSQSLLNSGNQKNYLTWYQQKPGQPPRLLIYWASTRESGVPDRFTGSGSGTDFTLTISSVQAEDLAVYYCQNDYIYPYTFGGGTNLEIK", "CDC EC50 (µg/mL)": 0.13}

Here's the next entry for you.
# input Report CDC EC50 for ch-59F9 (antibody, V domains shown, also called chimeric antibody of clone 59F9) VH: QVQLQQSGAELMKPGASVKLPCKASGYTLTGYWIEWLKQRPRHGLEWIGEILLGSGSIKYNVKFKDKATFTADTSSNTAYMQLNSLTTEDSAIYYCARKGLRGNSFDYWGQGTTLTVSS VL: DIVMTQSPSSLTVTAGEKVTMSCKSSQSLLNSGNQKSYLTWYQQKPGQPPKRLIYWASTRESGVPDRFTGSGSGTDFTLTISSVQAEDLAVYYCQNDYYYPFTFGSGTKLEIK
# output 0.091

Provenance of the data: patent US20220411492A1
